Below, each entry is listed with its recorded growth.
tested on: SNB-19 CNS; test: NCI-60 one-dose screen, 48 h (100 = growth as untreated, 0 = no growth, -100 = all killed); conditions: 10 µM
The panel holds about 83,000 compounds, 20% with a hit somewhere; the sample as a whole holds those more often.
Write the number in % without appending the unit.

Previously resolved entries follow.
compound	growth / %
CC(C)CCN(CCC(C)C)CC(=O)Nc1ccc(S(=O)(=O)c2ccc(NC(=O)CN(CCC(C)C)CCC(C)C)cc2)cc1	52.6
O=C(N/N=C/c1cc([N+](=O)[O-])ccc1O)c1cccc2ccccc12	53
CCOC(=O)N/N=C/c1ccc(OC)c(OC)c1	104
CS(=O)(=O)c1nccc(-c2c(-c3cccc(OCc4ccc(F)cc4)c3)nc3sccn23)n1	83.2
CC[C@@H](C(=O)[C@H](C)[C@H](O)[C@@H](C)[C@H]1O[C@H]([C@@H](CC)C(=O)O)CC[C@H]1C)C1O[C@]2(C=C[C@@H](O)[C@]3(CC[C@@](C)([C@H]4CC[C@](O)(CC)[C@H](C)O4)O3)O2)[C@H](C)C[C@@H]1C (stereo not given in full)	-13.3

Summary for this compound, O=[N+]([O-])c1ccc2ncccc2c1Cl : growth is 62.7

Summary for this compound, COc1ccc2cc(-c3nc4ccccc4s3)c(Cl)nc2c1OC : growth is 93.9

Summary for this compound, Cc1ccc(C(=O)/C=C/c2ccccc2)s1 : growth is 99.1

Summary for this compound, CCC(CC)n1c(C)cc(=O)n1C(CC)CC : growth is 96

Summary for this compound, CN1CCc2c(sc3nc4n(-c5ccc(Cl)cc5)cnn4c(=O)c23)C1 : growth is 107

* * *

Below, each entry is listed with its recorded growth.
test system: MOLT-4 leukemia; test: NCI-60 one-dose screen, 48 h (100 = growth as untreated, 0 = no growth, -100 = all killed); conditions: 10 µM
Compounds without any hit were thinned out: in the full panel of roughly 83,000, 20% have a hit.
Write the number in % without appending the unit.

Previously resolved entries follow.
compound	growth (%)
O=[N+]([O-])c1ccc(/C(=C/c2ccccc2)[n+]2ccccc2)cc1	105
CC(C)C[C@H](NC(=O)Cn1cccc(CNC(=O)c2ccccc2)c1=O)B(O)O	-7.9
O=C1c2ccccc2C(=O)c2c1ccc1c(=O)n(-c3ccccc3C(F)(F)F)nnc21	7.06

Summary for this compound, COc1ccc(-c2csc(NC(=O)c3ccc(Cc4n[nH]c(=O)c5cccnc45)cc3)n2)cc1 : growth is 97.2

Summary for this compound, CCn1cc(C(=O)O)c(=O)c2cc(F)c(N3CCNCC3)cc21 : growth is 93.5

Summary for this compound, O=S(=O)(O)c1cccc(Nc2ccc3ccccc3c2)c1 : growth is 95.3

Summary for this compound, Nc1ccc(/C=N/Nc2ccnc3c(O)cccc23)c2cccnc12 : growth is 14.5

Summary for this compound, C[n+]1c2ccccc2nc2ccccc21 : growth is 24.9

Summary for this compound, COc1cccc(CNc2cccc3cn[nH]c23)c1O : growth is 98

* * *

Below, each entry is listed with its recorded growth.
system: UACC-62 melanoma; assay: NCI-60 one-dose screen, 48 h (100 = growth as untreated, 0 = no growth, -100 = all killed); conditions: 10 µM
Compounds without any hit were thinned out: in the full panel of roughly 83,000, 20% have a hit. Activity calls are given as the source filed them. The calls were made as follows: active = growth percent below 10; inactive = the rest.

Previously resolved entries follow.
compound	result
c1cncc(-c2csc(-c3c[nH]c4ccccc34)n2)c1	88.7% (inactive)
Nc1nc(N)c(N)c(Nc2ccc(CCO)cc2)n1	97.5% (inactive)
O=C(c1ccccc1)N(C(=O)c1ccccc1)N1CCCC1	85.8% (inactive)
CS(=O)(=O)c1nccc(-c2c(-c3cccc(O)c3)nc3sccn23)n1	85.9% (inactive)
O=C(CNc1nnc(-c2cccnc2SCc2ccccc2)s1)Nc1nc(Cl)cc(Cl)n1	108% (inactive)

Record CC(C)(O)CCl has UACC-62 melanoma growth equal to 102% (inactive)

Record O=C1c2ccccc2C(=O)c2c1ccc1c(=O)n(-c3ccccc3C(F)(F)F)nnc21 has UACC-62 melanoma growth equal to -34.8% (active)

Record N=C1S/C(=C/c2ccc(-c3ccc4c(c3)C(=O)NC4=O)o2)C(=O)N1c1ccc(Br)cc1 has UACC-62 melanoma growth equal to 31.8% (inactive)

Record Cc1c2cnccc2c(C)c2c1oc1ccccc12 has UACC-62 melanoma growth equal to 53.9% (inactive)

Record O=C1NC(=O)c2c(CCCSc3nc4ccccc4c(=O)n3CCc3ccccc3)cccc21 has UACC-62 melanoma growth equal to 90% (inactive)

Record O=C(Nc1cc([N+](=O)[O-])c2[nH]c(=O)c3ccccc3c2c1)C(F)(F)F has UACC-62 melanoma growth equal to 81.7% (inactive)

* * *

Test system: OVCAR-4 ovarian
Assay: NCI-60 one-dose screen, 48 h (100 = growth as untreated, 0 = no growth, -100 = all killed)
Details: 10 µM
Method: Growth inhibition of the OVCAR-4 human tumor cell line is measured as a screen for anti-cancer activity. Cells are grown in 96 well plates and exposed to the test compound for 48 hours. Compounds are tested at a single concentration, which is 10^-5 M for most compounds. The reported endpoint is percent growth (GI% or GIPRCNT), where numbers from 0 - 100% represent growth inhibition, and numbers from -100% - 0 represent cell death. For example, a value of 40 represents 60% growth inhibition. […]
The panel holds about 83,000 compounds, 20% with a hit somewhere; the sample as a whole holds those more often.
growth class ranges: lower = under 50%, middle = from 50% up to 80%, upper = 80% and over

Take a look at these entries with their results.
molecule	label value
CN(C)CCCOc1ccccc1NC1=C(Cl)C(=O)C(Nc2ccccc2OCCCN(C)C)=C(Cl)C1=O	lower
COc1ccc([C@H]2[C@H](C(=O)Nc3cccnc3)c3ccccc3C(=O)N2c2ccccc2)cc1	upper
COc1ccc(/C=C/C(=O)C(=O)/C=C/c2ccc(OC)c(OC)c2)cc1OC	middle

Sort into band: COc1cc(/C=C/c2cc(/C=C/c3ccc(O)c(OC)c3)[nH]c(=O)n2)ccc1O
middle

Sort into band: Cc1cc(C)nc(NS(=O)(=O)c2ccc(Nc3nc4nc(NCc5ccccc5)nc(-c5ccc(O)cc5)c4c(=O)[nH]3)cc2)n1
lower

Sort into band: CCOC(=O)c1cc(C(=O)c2cc(OC)c(OC)c(OC)c2)n2c1ccc1c3cccnc3ccc12
upper

Sort into band: CC(C)N(CCOc1ccc(-c2nc3sccn3c2-c2ccnc(S(C)(=O)=O)n2)cc1)C(C)C
middle

Sort into band: CCOC(=O)c1cocc1C(=O)O
upper

Sort into band: CCCN1CN2C(=O)N3CN(CCC)CN4C(=S)N(C1)C2C34 (configuration not stated)
upper

Sort into band: Cc1ccc(C2=NN(c3ccc(S(C)(=O)=O)cc3)C(=O)CC2)cc1
middle

Sort into band: S=C(SSC(=S)N(c1ccccc1)c1ccccc1)N(c1ccccc1)c1ccccc1
upper

Sort into band: C=CCN(CC=C)C(=O)[C@H](CC)[C@@H]1CC[C@@H](C)[C@@H]([C@H](C)[C@@H](O)[C@@H](C)C(=O)[C@H](CC)C2O[C@]3(C=CC(=O)[C@]4(CC[C@@](C)([C@H]5CC[C@](O)(CC)[C@H](C)O5)O4)O3)[C@H](C)C[C@@H]2C)O1 (some centres not stated)
lower

* * *

test system: A498 renal; experiment: NCI-60 one-dose screen, 48 h (100 = growth as untreated, 0 = no growth, -100 = all killed); settings: 10 µM
This is part of a sample that, as a whole, favours compounds with a hit. Of some 83,000 tested, about 20% had one in any assay.
Doc: threshold 30% (exclusive). Items with growth beneath it return true; others return false.

compound	label value
COC(=O)c1c[nH]c2cc(OC(C)C)c(OC(C)C)cc2c1=O	false
COc1ccc(/C=c2\sc3n(c2=O)C(c2cc(OC)c(OC)c(OC)c2)C=C(c2ccc(OC)c(OC)c2)N=3)cc1OC (centres undefined)	false
O=C(O)c1cn(C2CC2)c2cc(N3CCN(C(=O)c4cc(-c5ccc(Cl)cc5)nc5ccccc45)CC3)c(F)cc2c1=O	false

Could you please tell me whether growth recorded for CCOC(=O)c1cc(C(=O)c2ccc(OC)c(OC)c2)n2c1ccc1ccc3cccnc3c12 is less than 30%?
true

Could you please tell me whether growth recorded for NC(=O)c1cccc(-n2ccc3cc(NC(=O)Nc4ccc(Cl)c(C(F)(F)F)c4)ccc32)n1 is less than 30%?
false

Could you please tell me whether growth recorded for CCOC(=O)c1cc(C(=O)c2cc(OC)c(OC)c(OC)c2)n2nc(C)ccc12 is less than 30%?
true

Could you please tell me whether growth recorded for COc1ccccc1N1CCCSC1=Nc1ccccc1 is less than 30%?
false

Could you please tell me whether growth recorded for COc1cc(-c2nn(-c3cccc(NC(=O)CCN4CCN(Cc5ccccc5)CC4)c3)cc2-c2ccncc2)ccc1Cl is less than 30%?
true
